Sourced from PubChem BioAssay (NCATS)

assay: Stat Signaling Pathway (AID 446); conditions: ME-180 (cervical carcinoma) SIE beta-lactamase reporter, IL-6 stimulated, 5 h; at 7.69 µM (top of the series) unless noted;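 note: ME-180 cervical cancer cells given 40 pM IL-6 alongside compound; SIE-controlled beta-lactamase reporter measured as 460/530 nm FRET emission ratio; % is set by controls: 0 for no effect and ±100 for the full control effect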
Records with an inconclusive call do not appear. Activity calls are given as the source filed them. Calls come from the whole dose curve; as a rule, active = well fitted curve in either direction with a large enough effect (not every such curve was filed as active); inconclusive = small, poorly fitted or top-dose-only effect, or another doubt; inactive = flat fitted curve, though single readings scatter.
Quantity: activity, negative = inhibition

Reference set (2 entries):
>  <Structure As Smiles>
CC(=O)NCCNc1cc(-c2ccccc2C)ncn1

>  <Reported Value>
16.5% (inactive)

$$$$
>  <Structure As Smiles>
Cc1cccc(CNc2cc(-c3c(C)noc3C)ncn2)c1

>  <Reported Value>
-4.88% (inactive)

$$$$

Please turn your attention to the following entry.
## Input # activity, negative = inhibition lookup, item "O=C(Nc1cccc(F)c1)N1CCC2(CC1)CCN(C(=O)c1csnn1)CC2"
## Output -9.77% (inactive)
